System: U937 cells (human monocytic cell line)
Test: BzATP-induced IL-1β secretion inhibition in PMA-differentiated U937 cells
Assay type: cell-based
Details: U-937, U937 cells differentiated with PMA, read-out: IL-1β production inhibition grade (IC50)
pIC50: −log10 of the molar value.
result-type: pIC50

Below are worked cases with known answers.
compound-smiles: CC(C)[C@H](CS(=O)(=O)O)NC(=O)CC[C@@H](C)[C@H]1CC[C@H]2[C@@H]3CC[C@@H]4C[C@H](O)CC[C@]4(C)[C@H]3CC[C@]12C
pIC50: > 7.30
//
compound-smiles: C[C@H](CCC(=O)N1CCN(S(=O)(=O)O)CC1)[C@H]1CC[C@H]2[C@@H]3CC[C@@H]4C[C@H](O)CC[C@]4(C)[C@H]3C[C@H](O)[C@]12C
pIC50: > 7.30
//
compound-smiles: CC[C@H]1[C@@H](O)[C@@H]2[C@H](C[C@H](O)[C@]3(C)[C@@H]([C@H](C)CCC(=O)N4CCC(S(=O)(=O)O)CC4)CC[C@@H]23)[C@@]2(C)CC[C@@H](O)C[C@@H]12
pIC50: ≤ 6.70
//
compound-smiles: C[C@H](CCC(=O)N[C@H]1CCCC[C@H]1S(=O)(=O)O)[C@H]1CC[C@H]2[C@@H]3CC[C@@H]4C[C@H](O)CC[C@]4(C)[C@H]3C[C@H](O)[C@]12C
pIC50: ≤ 6.70

Please turn your attention to the following entry.
Which pIC50 reading was recorded for the compound `CC[C@H]1[C@@H](O)[C@@H]2[C@H](C[C@H](O)[C@]3(C)[C@@H]([C@H](C)CCC(=O)N(C)CCS(=O)(=O)O)CC[C@@H]23)[C@@]2(C)CC[C@@H](O)C[C@@H]12` ?
6.70 to 7.00

----------
System: U937 cells (human monocytic cell line)
Experiment: Pam2CSK4-induced TNF-α secretion inhibition in PMA-differentiated U937 cells
Assay type: cell-based
Conditions: U-937, U937 cells differentiated with PMA, read-out: TNF-α production inhibition grade (IC50)
pIC50: −log10 of the molar value.
Below, each of the molecules is paired with its reported pIC50 value.

Consider the worked cases shown below.
molecule: C[C@H](CCC(=O)NC(C)(C)CS(=O)(=O)O)[C@H]1CC[C@H]2[C@@H]3CC[C@@H]4C[C@H](O)CC[C@]4(C)[C@H]3C[C@H](O)[C@]12C [NC10029]
result-type: pIC50
value-measured: ≤ 5.70
--
molecule: C[C@H](CCC(=O)NCS(=O)(=O)O)[C@H]1CC[C@H]2[C@@H]3CC[C@@H]4C[C@H](O)CC[C@]4(C)[C@H]3C[C@H](O)[C@]12C [NC10001]
result-type: pIC50
value-measured: ≤ 5.70

Endpoint output: pIC50 of C[C@H](CCC(=O)NCCCS(=O)(=O)O)[C@H]1CC[C@H]2[C@@H]3CC[C@@H]4C[C@H](O)CC[C@]4(C)[C@H]3CC[C@]12C [NC10014] . Value?
5.70 to 6.00

----------
Each entry below carries its recorded inhibition at 1 µM.
Tested on: J774A.1 (Mouse BALB/c monocyte macrophage cell line) cells
Assay: LPS-induced TNF-α secretion inhibition in J774A.1 cells
Type: cell-based
Conditions: J774.A1, 1 μM compound, graded compared to taurodeoxycholic acid (positive control), read-out: TNF-α production inhibition grade

compound-smiles: C[C@H](CCC(=O)N[C@H](Cc1ccccc1)CS(=O)(=O)O)[C@H]1CC[C@H]2[C@@H]3CC[C@@H]4C[C@H](O)CC[C@]4(C)[C@H]3CC[C@]12C
inhibition at 1 µM: < 20%
//
compound-smiles: C[C@H](CCC(=O)N1CC[C@H](S(=O)(=O)O)C1)[C@H]1CC[C@H]2[C@@H]3CC[C@@H]4CC(=O)CC[C@]4(C)[C@H]3CC[C@]12C
inhibition at 1 µM: < 20%
//
compound-smiles: CC[C@H]1[C@@H](O)[C@@H]2[C@H](CC[C@]3(C)[C@@H]([C@H](C)CCC(=O)N4CC(S(=O)(=O)O)C4)CC[C@@H]23)[C@@]2(C)CC[C@@H](O)C[C@@H]12
inhibition at 1 µM: < 20%

Please tell me: inhibition at 1 µM of `C[C@H](CCC(=O)N[C@@H](Cc1ccccc1)CS(=O)(=O)O)[C@H]1CC[C@H]2[C@@H]3[C@H](O)C[C@@H]4C[C@H](O)CC[C@]4(C)[C@H]3C[C@H](O)[C@]12C` , system J774A.1 (Mouse BALB/c monocyte macrophage cell line) cells?
< 20%

Query the reported inhibition at 1 µM for J774A.1 (Mouse BALB/c monocyte macrophage cell line) cells; item: `C[C@H](CCC(=O)Nc1ccc(S(=O)(=O)O)cc1)[C@H]1CC[C@H]2[C@@H]3CC[C@@H]4C[C@H](O)CC[C@]4(C)[C@H]3C[C@H](O)[C@]12C`
> 100%

----------
Test system: U937 cells (human monocytic cell line)
Experiment: Pam2CSK4-induced TNF-α secretion inhibition in PMA-differentiated U937 cells
Assay type: cell-based
Details: U-937, U937 cells differentiated with PMA, read-out: TNF-α production inhibition grade (IC50)
The reader will find reported IC50 values listed item by item below.

The cases that follow already have their IC50 on record.
compound-smiles: CC[C@H]1[C@@H](O)[C@@H]2[C@H](C[C@H](O)[C@]3(C)[C@@H]([C@H](C)CCC(=O)N[C@H]4CCCC[C@H]4S(=O)(=O)O)CC[C@@H]23)[C@@]2(C)CC[C@@H](O)C[C@@H]12
result-type: IC50
value-measured: 1000 to 2000 nM
--
compound-smiles: C[C@H](CCC(=O)N(C)CCS(=O)(=O)O)[C@H]1CC[C@H]2[C@@H]3[C@H](O)C[C@@H]4C[C@H](O)CC[C@]4(C)[C@H]3C[C@H](O)[C@]12C
result-type: IC50
value-measured: 500 to 1000 nM
--
compound-smiles: C[C@H](CCC(=O)NC1(CS(=O)(=O)O)CC1)[C@H]1CC[C@H]2[C@@H]3[C@H](O)C[C@@H]4C[C@H](O)CC[C@]4(C)[C@H]3C[C@H](O)[C@]12C
result-type: IC50
value-measured: ≥ 2000 nM
--
compound-smiles: CC[C@H]1[C@@H](O)[C@@H]2[C@H](C[C@H](O)[C@]3(C)[C@@H]([C@H](C)CCC(=O)N[C@@H](CS(=O)(=O)O)C(C)C)CC[C@@H]23)[C@@]2(C)CC[C@@H](O)C[C@@H]12
result-type: IC50
value-measured: 1000 to 2000 nM

# context switch: different compound, same IC50
Fill in: IC50 of `C[C@H](CCC(=O)N1CCC(CCS(=O)(=O)O)CC1)[C@H]1CC[C@H]2[C@@H]3CC[C@@H]4C[C@H](O)CC[C@]4(C)[C@H]3CC[C@]12C` is ___
< 500 nM

----------
Test system: U937 cells (human monocytic cell line)
Test: Pam2CSK4-induced TNF-α secretion inhibition in PMA-differentiated U937 cells
Format: cell-based
Conditions: U-937, U937 cells differentiated with PMA, read-out: TNF-α production inhibition grade (IC50)
pIC50: −log10 of the molar value.
Items are presented alongside their recorded pIC50.

Examples from the recorded data:
molecule: C[C@H](CCC(=O)Nc1ccc(S(=O)(=O)O)cc1)[C@H]1CC[C@H]2[C@@H]3CC[C@@H]4C[C@H](O)CC[C@]4(C)[C@H]3CC[C@]12C [NC10015]
pIC50: ≤ 5.70

molecule: C[C@H](CCC(=O)N1CC(S(=O)(=O)O)C1)[C@H]1CC[C@H]2[C@@H]3[C@H](O)C[C@@H]4C[C@H](O)CC[C@]4(C)[C@H]3C[C@H](O)[C@]12C [NC20012]
pIC50: 6.00 to 6.30

molecule: C[C@H](CCC(=O)N1CC[C@H](S(=O)(=O)O)C1)[C@H]1CC[C@H]2[C@@H]3[C@H](O)C[C@@H]4C[C@H](O)CC[C@]4(C)[C@H]3C[C@H](O)[C@]12C [NC20033]
pIC50: 5.70 to 6.00

molecule: C[C@H](CCC(=O)N1CCC[C@H]1CS(=O)(=O)O)[C@H]1CC[C@H]2[C@@H]3[C@H](O)C[C@@H]4C[C@H](O)CC[C@]4(C)[C@H]3C[C@H](O)[C@]12C [NC20021]
pIC50: 5.70 to 6.00

molecule: CC[C@H]1[C@@H](O)[C@@H]2[C@H](CC[C@]3(C)[C@@H]([C@H](C)CCC(=O)NC[C@@H](C)S(=O)(=O)O)CC[C@@H]23)[C@@]2(C)CC[C@@H](O)C[C@@H]12 [NC40023]
pIC50: 6.00 to 6.30

molecule: CC[C@H]1[C@@H](O)[C@@H]2[C@H](C[C@H](O)[C@]3(C)[C@@H]([C@H](C)CCC(=O)NCCC(=O)O)CC[C@@H]23)[C@@]2(C)CC[C@@H](O)C[C@@H]12 [NC50002]
pIC50: ≤ 5.70

Recorded pIC50 of C[C@H](CCC(=O)NC[C@H](C)S(=O)(=O)O)[C@H]1CC[C@H]2[C@@H]3[C@H](O)C[C@@H]4C[C@H](O)CC[C@]4(C)[C@H]3C[C@H](O)[C@]12C [NC20022] , please.
5.70 to 6.00

Reported pIC50, molecule C[C@H](CCC(=O)NC[C@H](C)S(=O)(=O)O)[C@H]1CC[C@H]2[C@@H]3CC[C@@H]4C[C@H](O)CC[C@]4(C)[C@H]3C[C@H](O)[C@]12C [NC10038] : ____
≤ 5.70
